viability, T/C overview
# Test system: KRAS patient-derived spheroids with HUVEC/MSC, viability;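 note: spheroids exposed to agents for seven days before readout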
# test protocol: Anticancer human tumor 941728-121-R-J1-PDC patient-derived lung adenocarcinoma cell line growth inhibition [KRAS2]
# condition notes: second compound 1 µM; first compound 3.16 µM; active compounds read low
Supply the numeric figure in %, leaving out any unit text.

Example entries and their recorded answers appear below.
CC1(C)CCC(CN2CCN(c3ccc(C(=O)NS(=O)(=O)c4ccc(NCC5CCOCC5)c([N+](=O)[O-])c4)c(Oc4cnc5[nH]ccc5c4)c3)CC2)=C(c2ccc(Cl)cc2)C1 + COc1cc2nc(C)nc(NC(C)c3cc(N)cc(C(F)(F)F)c3)c2cc1OC1CCOC1; 7.71
COC(=O)c1ccc2c(C(=Nc3ccc(N(C)C(=O)CN4CCN(C)CC4)cc3)c3ccccc3)c(O)[nH]c2c1 + CNCc1ccccc1-c1csc(C(C)Nc2nc(C)nc3cc(OC)c(OC)cc23)c1; 3.56

Next:
Write down the reported viability, T/C (system: KRAS patient-derived spheroids with HUVEC/MSC, viability) of Cn1nccc1Nc1nccc(-c2cc3c(s2)C(C)(C)N(CCN2CCOCC2)C3=O)n1 + COc1cc2nc(C)nc(NC(C)c3cc(N)cc(C(F)(F)F)c3)c2cc1OC1CCOC1;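 note: spheroids exposed to agents for seven days before readout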
38.4
